Provide the reported TGI of each item.
- System: T-47D breast
- assayProcedure: NCI tumour cell line growth inhibition, 48 h

Completed entries (count: 2):
molecule	measurementLabel	result
CC(=O)O[C@@H]1[C@H]2[C@@H](OC(=O)c3ccccc3)[C@@H](C)C[C@]2(O)[C@H](OC(C)=O)[C@@]2(C)[C@@H]3CC(C)(C)C(=O)[C@]3(OC(C)=O)C[C@@]12C	TGI	> 25 µM
CCCCn1cnnc1NS(=O)(=O)c1cc(C)c(Cl)cc1SCC(=O)O	TGI	> 10 µM

Provide the reported TGI of each entry below, same order.
1. Cc1cc(C)nc(NC(=S)Nc2ccccc2Cl)c1
2. CCOC(=O)c1cc(C2CCN(CC(C)CC)C2=S)c(-c2cc(C)no2)[nH]1 (stereo not drawn)
3. COc1cc(/C=C/C(=O)OC2C(O)C3CC(OC(=O)c4cc(OC)c(OC)c(OC)c4)CC2N3C)cc(OC)c1OC (stereo not drawn)
4. COC(=O)C1CC=C(SC(=O)c2ccccc2)N1C(=O)c1ccccc1 (stereo not drawn)
5. CN1CCN(c2cc3c(cc2F)c(=O)c(C(=O)O)cn3C2CC2)CC1CC#N (stereo not drawn)
6. O=C1CCCCC1=C(I)I
7. C[C@]12CC[C@@H]3c4ccc(O)cc4CC[C@H]3[C@@H]1CC[C@@H]2NS(=O)(=O)c1cccc(C(F)(F)F)c1

> 100 µM
> 100 µM
43.7 µM
> 100 µM
> 100 µM
28.7 µM
13.4 µM

----------
- Tested on: NCI-H460 lung
- assayProcedure: NCI tumour cell line growth inhibition, 48 h
measurementLabel: TGI

Completed entries (count: 4):
molecule	TGI
COc1ccc(C(Cc2cc(OC)c(OC)c(OC)c2)C(=O)O)cc1 (stereo not given)	> 100 µM
Cc1ccc(/C=C2/SC(Nc3nc(-c4nc(NC5=NC(=O)/C(=C\c6ccc(C)cc6)S5)sc4C)c(C)s3)=NC2=O)cc1	> 50 µM
CCOC(=O)NC(C(=O)OCC)C(F)(F)F (stereo not given)	> 100 µM
CC(C)(O)C1CCC(Nc2ccc3ncc(-c4cccc(C(F)(F)F)c4)n3n2)CC1 (stereo not given)	12.1 µM

Kindly review the next molecule as well.
For COC(=O)C1C2C=CC(C2)C1(C(=O)OC)S(=O)CC12CCC(CC1O)C2(C)C (stereo not given) , what is its reported TGI?
> 100 µM

----------
- System: HT29 colon
- assayProcedure: NCI tumour cell line growth inhibition, 48 h
measurementLabel: TGI

Provide the reported TGI of each entry below, same order.
1. Cc1ccc(S(=O)(=O)NNC(=O)c2sc(-c3nc(C)c(C(=O)NNS(=O)(=O)c4ccc(C)cc4)s3)nc2C)cc1
2. NC(=O)c1cc([N+](=O)[O-])c(Cl)c([N+](=O)[O-])c1
3. CCOP(=O)(OCC)C(Nc1cccc([N+](=O)[O-])c1)c1ccccc1 (stereo not given)
4. C=CN1C(=O)OC[C@@H]1c1ccccc1
5. O=C(Cn1cc(F)c(=O)[nH]c1=O)C12CC3CC(CC(C3)C1)C2

1: > 100 µM; 2: 5.51 µM; 3: > 100 µM; 4: > 100 µM; 5: > 100 µM

----------
- Tested on: RXF 393 renal
- assayProcedure: NCI tumour cell line growth inhibition, 48 h
measurementLabel: TGI

Completed entries (count: 2):
compound	TGI
COC(=O)C1C2C=CC(C2)C1(C(=O)OC)S(=O)CC12CCC(CC1O)C2(C)C (centres undefined)	> 100 µM
O=C(c1ccco1)n1c2ccc(Br)cc2c2nc3ccccc3nc21	> 100 µM

Provide the reported TGI of each entry below, same order.
1. CC(C)[C@@]12C[C@@H](OC(=O)COC(=O)/C=C/c3ccccc3)[C@@](C)(O1)[C@@H]1CC[C@@H](C)[C@H]1[C@@H]2OC(=O)/C=C/c1ccccc1
2. CN1CCN(c2cc3c(cc2F)c(=O)c(C(=O)O)cn3C2CC2)CC1CC#N (centres undefined)

["> 100 µM", "> 100 µM"]

Ref: PubChem BioAssay (NCI)
